test: Plasma pharmacokinetics of Compound 1 in patients with advanced solid tumor malignancies and TGCT; assay type: in vivo, human; conditions: human, plasma, oral, 30 mg, Cohort 5 30 mg QD x 5 d, BIW maintenance dose; C1D1; Geo Mean
assayEndpoint: Cmax (ng/mL)
Report only the number, with the unit ng/mL understood.

[ask] Fill in: Cmax of "Cc1nc(-c2cnc(NC(C)C)n(C)c2=O)ccc1Oc1ccnc(-c2cnn(C)c2)c1" is ___
[reply] 600

* * *

assay: Plasma pharmacokinetics of Compound 1 in patients with advanced solid tumor malignancies and TGCT; assay type: in vivo, human; details: human, plasma, oral, 20 mg, Cohort 4 20 mg Twice Weekly after 5-day QD loading dose; Day-7; GM (CV %)
assayEndpoint: Cmax

[ask] Any idea what Cmax was measured for Cc1nc(-c2cnc(NC(C)C)n(C)c2=O)ccc1Oc1ccnc(-c2cnn(C)c2)c1 [Compound 1] ?
[reply] 183 ng/mL

* * *

experiment: Plasma pharmacokinetics of Compound 1 in patients with advanced solid tumor malignancies and TGCT; type: in vivo, human; settings: human, plasma, oral, 20 mg, Cohort 3 20 mg QD x 5 d, QW maintenance dose; C1D8; Geo Mean; read-out: AUC0-8 h
assayEndpoint: AUC(0-t) (ng·h/mL)
Provide the reading as a plain figure in ng·h/mL.

[ask] If you can, please state the reported AUC(0-t) value of Cc1nc(-c2cnc(NC(C)C)n(C)c2=O)ccc1Oc1ccnc(-c2cnn(C)c2)c1 [Compound 1] .
[reply] 7410

* * *

Assay: Plasma pharmacokinetics of Compound 1 in patients with advanced solid tumor malignancies and TGCT
Type: in vivo, human
Conditions: human, plasma, oral, 10 mg, Cohort 2 10 mg QD x 5 d, BIW maintenance dose; C1D1; Geo Mean; read-out: AUC0-8 h
Procedure: PK analysis was conducted on all 38 patients. […] PD effects were measured by two methodologies: 1) depletion of CSF1R-expressing monocytes in peripheral blood (Cohorts 1-7) from C1D1, C1D15 and C2D1; and 2) increase of plasma levels of CSF1 and IL-34, the ligands for CSF1R (Cohorts 1-7) on C1D1, C1D15, and C2D1. […]
assayEndpoint: AUC(0-t) (ng·h/mL)
Unit ng·h/mL implied. Number only.

[ask] Param item = Cc1nc(-c2cnc(NC(C)C)n(C)c2=O)ccc1Oc1ccnc(-c2cnn(C)c2)c1 [Compound 1] ; retrieve measured AUC(0-t).
[reply] 1080

* * *

assay: Plasma pharmacokinetics of Compound 1 in patients with advanced solid tumor malignancies and TGCT; assay type: in vivo, human; settings: human, plasma, oral, 10 mg, Cohort 2 10 mg QD x 5 d, BIW maintenance dose; Day -7; Geo Mean; read-out: AUC0-8 h
assayEndpoint: AUC(0-t) (ng·h/mL)
Enter your answer as a number in ng·h/mL; do not include the unit.

[ask] Which AUC(0-t) value is on record for "Cc1nc(-c2cnc(NC(C)C)n(C)c2=O)ccc1Oc1ccnc(-c2cnn(C)c2)c1" ?
[reply] 781

* * *

test: Plasma pharmacokinetics of Compound 1 in patients with advanced solid tumor malignancies and TGCT; assay type: in vivo, human; conditions: human, plasma, oral, Cohort 7 20 mg QD after 3-day 50 mg QD loading dose; C1D8; GM (CV %)
assayEndpoint: Cmax (ng/mL)
Please state the figure in ng/mL; there is no need to write the unit.

[ask] State the recorded Cmax for this entry: Cc1nc(-c2cnc(NC(C)C)n(C)c2=O)ccc1Oc1ccnc(-c2cnn(C)c2)c1 [Compound 1]
[reply] 1010

* * *

assay: Plasma pharmacokinetics of Compound 1 in patients with advanced solid tumor malignancies and TGCT; assay type: in vivo, human; conditions: human, plasma, oral, 10 mg, Cohort 1 10 mg QD; C2D1; Geo Mean
assayEndpoint: Cmax (ng/mL)
Express the result in ng/mL but write the number alone.

[ask] Query (molecule): Cc1nc(-c2cnc(NC(C)C)n(C)c2=O)ccc1Oc1ccnc(-c2cnn(C)c2)c1 [Compound 1] ; field requested: Cmax
[reply] 767

* * *

test: Plasma pharmacokinetics of Compound 1 in patients with advanced solid tumor malignancies and TGCT; assay type: in vivo, human; settings: human, plasma, oral, 30 mg, Cohort 5 30 mg QD x 5 d, BIW maintenance dose; C1D1; Geo Mean; read-out: AUC0-8 h
assayEndpoint: AUC(0-t) (ng·h/mL)
Report only the number, with the unit ng·h/mL understood.

[ask] Report AUC(0-t) for "Cc1nc(-c2cnc(NC(C)C)n(C)c2=O)ccc1Oc1ccnc(-c2cnn(C)c2)c1" please.
[reply] 3390

* * *

assay: Plasma pharmacokinetics of Compound 1 in patients with advanced solid tumor malignancies and TGCT; format: in vivo, human; conditions: human, plasma, oral, 30 mg, Cohort 5 30 mg Twice Weekly after 5-day QD loading dose; Day-7; GM (CV %)
assayEndpoint: Cmax (ng/mL)
Express it in ng/mL; write the number only.

[ask] Please look up its Cmax: Cc1nc(-c2cnc(NC(C)C)n(C)c2=O)ccc1Oc1ccnc(-c2cnn(C)c2)c1 [Compound 1]
[reply] 278

* * *

assay: Plasma pharmacokinetics of Compound 1 in patients with advanced solid tumor malignancies and TGCT; type: in vivo, human; settings: human, plasma, oral, 30 mg, Cohort 5 30 mg QD x 5 d, BIW maintenance dose; C1D8; Geo Mean
assayEndpoint: Cmax

[ask] Please give the measured Cmax for this compound: Cc1nc(-c2cnc(NC(C)C)n(C)c2=O)ccc1Oc1ccnc(-c2cnn(C)c2)c1 [Compound 1]
[reply] 1400 ng/mL

* * *

Experiment: Plasma pharmacokinetics of Compound 1 in patients with advanced solid tumor malignancies and TGCT
Assay type: in vivo, human
Conditions: human, plasma, oral, 20 mg, Cohort 7 20 mg QD after 3-day 50 mg QD loading dose; C2D1; GM (CV %); read-out: AUC0-8
Method: PK analysis was conducted on all 38 patients. […] PD effects were measured by two methodologies: 1) depletion of CSF1R-expressing monocytes in peripheral blood (Cohorts 1-7) from C1D1, C1D15 and C2D1; and 2) increase of plasma levels of CSF1 and IL-34, the ligands for CSF1R (Cohorts 1-7) on C1D1, C1D15, and C2D1. […]
assayEndpoint: AUC(0-t) (ng·h/mL)
Give the value, in units of ng·h/mL, as a plain number.

[ask] Could you tell me which AUC(0-t) is on file for "Cc1nc(-c2cnc(NC(C)C)n(C)c2=O)ccc1Oc1ccnc(-c2cnn(C)c2)c1" ?
[reply] 7980

* * *

assay: Plasma pharmacokinetics of Compound 1 in patients with advanced solid tumor malignancies and TGCT; type: in vivo, human; conditions: human, plasma, oral, 20 mg, Cohort 4 20 mg QD x 5 d, BIW maintenance dose; Day -7; Geo Mean
assayEndpoint: Cmax (ng/mL)
Please respond with the number in ng/mL and leave the unit unwritten.

[ask] Suppose we examine the molecule "Cc1nc(-c2cnc(NC(C)C)n(C)c2=O)ccc1Oc1ccnc(-c2cnn(C)c2)c1" ; what Cmax value has been reported?
[reply] 183

* * *

test: Plasma pharmacokinetics of Compound 1 in patients with advanced solid tumor malignancies and TGCT; format: in vivo, human; settings: human, plasma, oral, 10 mg, Cohort 1 10 mg QD; Day-7; GM (CV %); read-out: AUC0-8
assayEndpoint: AUC(0-t) (ng·h/mL)
Field format: number, assumed ng·h/mL, no unit text.

[ask] Looking for the measured AUC(0-t) of "Cc1nc(-c2cnc(NC(C)C)n(C)c2=O)ccc1Oc1ccnc(-c2cnn(C)c2)c1" , can you help?
[reply] 425

* * *

experiment: Plasma pharmacokinetics of Compound 1 in patients with advanced solid tumor malignancies and TGCT; assay type: in vivo, human; conditions: human, plasma, oral, 20 mg, Cohort 3 20 mg Weekly after 5-day QD loading dose; Day-7; GM (CV %); read-out: AUC0-8
assayEndpoint: AUC(0-t)
Reply with the number, then its unit.

[ask] Need AUC(0-t) of Cc1nc(-c2cnc(NC(C)C)n(C)c2=O)ccc1Oc1ccnc(-c2cnn(C)c2)c1 [Compound 1] , thanks.
[reply] 1.32 µg·h/mL

* * *

assay: Plasma pharmacokinetics of Compound 1 in patients with advanced solid tumor malignancies and TGCT; format: in vivo, human; conditions: human, plasma, oral, 30 mg, Cohort 5 30 mg Twice Weekly after 5-day QD loading dose; C2D1; GM (CV %); read-out: AUC0-8
assayEndpoint: AUC(0-t) (ng·h/mL)
Answer with a number only, understood to be in ng·h/mL.

[ask] AUC(0-t) lookup needed for "Cc1nc(-c2cnc(NC(C)C)n(C)c2=O)ccc1Oc1ccnc(-c2cnn(C)c2)c1" , thanks.
[reply] 5420

* * *

assay: Plasma pharmacokinetics of Compound 1 in patients with advanced solid tumor malignancies and TGCT; format: in vivo, human; settings: human, plasma, oral, 40 mg, Cohort 6 40 mg Twice Weekly after 5-day QD loading dose; C2D1; Median (Min, Max)
assayEndpoint: Tmax (h)
// return numeric value only (unit: h, not printed)

[ask] # get_value(readout='Tmax', item= Cc1nc(-c2cnc(NC(C)C)n(C)c2=O)ccc1Oc1ccnc(-c2cnn(C)c2)c1 [Compound 1] )
[reply] 1

* * *

assay: Plasma pharmacokinetics of Compound 1 in patients with advanced solid tumor malignancies and TGCT; type: in vivo, human; details: human, plasma, oral, 30 mg, Cohort 5 30 mg QD x 5 d, BIW maintenance dose; Day -7; Geo Mean
assayEndpoint: Cmax
Field note: include the unit after the figure.

[ask] Request the reported Cmax associated with "Cc1nc(-c2cnc(NC(C)C)n(C)c2=O)ccc1Oc1ccnc(-c2cnn(C)c2)c1"
[reply] 278 ng/mL
